# Target system: F508delCFTR (Homo sapiens, UniProt P13569, DEL508-508)
# Construct: expressed in transfected cells; host or cells: CFBE41o- human lung-derived epithelial cells (CFBE4lo-F508delCFTR-HRP), doxycycline-inducible
# Sequence (P13569 with tags, fused parts or gaps DEL508-508): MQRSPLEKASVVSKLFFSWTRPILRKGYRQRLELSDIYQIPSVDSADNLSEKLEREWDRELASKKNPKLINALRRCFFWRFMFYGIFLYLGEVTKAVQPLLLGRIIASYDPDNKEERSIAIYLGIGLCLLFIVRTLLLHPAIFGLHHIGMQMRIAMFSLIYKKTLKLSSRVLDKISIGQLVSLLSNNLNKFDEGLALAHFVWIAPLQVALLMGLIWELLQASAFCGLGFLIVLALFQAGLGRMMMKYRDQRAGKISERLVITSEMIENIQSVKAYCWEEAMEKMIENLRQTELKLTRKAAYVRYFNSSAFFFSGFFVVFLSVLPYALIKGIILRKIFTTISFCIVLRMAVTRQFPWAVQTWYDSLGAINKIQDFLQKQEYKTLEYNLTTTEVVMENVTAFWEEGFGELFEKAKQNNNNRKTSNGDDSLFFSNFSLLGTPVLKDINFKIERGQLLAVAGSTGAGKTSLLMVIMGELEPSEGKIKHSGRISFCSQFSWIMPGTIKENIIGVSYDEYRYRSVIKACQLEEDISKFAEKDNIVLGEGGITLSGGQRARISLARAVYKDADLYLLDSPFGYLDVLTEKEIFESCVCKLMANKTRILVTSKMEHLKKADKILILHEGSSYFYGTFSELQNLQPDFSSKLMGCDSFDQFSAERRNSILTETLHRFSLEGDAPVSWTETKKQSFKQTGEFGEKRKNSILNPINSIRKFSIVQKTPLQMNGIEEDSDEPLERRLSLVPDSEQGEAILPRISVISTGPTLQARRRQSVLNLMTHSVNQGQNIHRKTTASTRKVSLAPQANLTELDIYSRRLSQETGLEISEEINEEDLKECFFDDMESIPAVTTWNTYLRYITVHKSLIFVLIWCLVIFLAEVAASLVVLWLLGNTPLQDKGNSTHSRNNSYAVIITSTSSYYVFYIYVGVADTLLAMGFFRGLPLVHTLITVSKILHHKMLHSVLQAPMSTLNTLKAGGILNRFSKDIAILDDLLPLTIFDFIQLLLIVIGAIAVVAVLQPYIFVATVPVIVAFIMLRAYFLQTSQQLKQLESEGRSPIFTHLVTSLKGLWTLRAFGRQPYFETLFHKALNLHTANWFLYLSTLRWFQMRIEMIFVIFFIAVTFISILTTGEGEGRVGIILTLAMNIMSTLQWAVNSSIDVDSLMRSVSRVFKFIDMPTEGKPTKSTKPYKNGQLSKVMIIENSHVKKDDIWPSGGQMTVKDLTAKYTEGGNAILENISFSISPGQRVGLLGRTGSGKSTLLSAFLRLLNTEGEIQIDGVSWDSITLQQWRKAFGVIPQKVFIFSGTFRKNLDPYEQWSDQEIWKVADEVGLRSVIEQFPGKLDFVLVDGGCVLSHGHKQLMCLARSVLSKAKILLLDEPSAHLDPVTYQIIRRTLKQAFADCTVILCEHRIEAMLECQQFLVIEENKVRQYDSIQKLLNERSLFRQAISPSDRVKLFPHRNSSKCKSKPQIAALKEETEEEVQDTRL
# Procedure summary: Cell Surface Expression-Horse Radish Peroxidase (CSE-HRP) Assay
# Assay type: cell-based
# Measurement setup: CSE-HRP; test compound without co-corrector; read-out: EC50 (without co-corrector)
Readout type: EC50

1) COc1ccc(C(C)(C)C)cc1CN[C@H]1[C@H](C(C)(C)C)[C@@H](C(=O)O)N(C(=O)Cc2ccccc2)[C@H]1c1ccccc1 [II-180] | 1 to 10 µM

Find the measured EC50 of COc1ncc(C(F)(F)F)cc1CN[C@H]1[C@H](C(C)(C)C)[C@@H](C(=O)O)N(C(=O)[C@@H]2CCCCO2)[C@H]1c1cccc2c1OCC2 [Example I-298] and report it. 1 to 10 µM

Find the measured EC50 of CC(C)c1ccccc1[C@H]1[C@@H](NCc2cccc3c2OC(C)(C)C3)[C@H](C(C)(C)C)[C@@H](C(=O)O)N1C(=O)[C@@H]1CCCO1 [Example I-305] and report it. 1 to 10 µM

Find the measured EC50 of COc1cc(C(F)(F)F)ccc1CN[C@@H]1[C@@H](C(C)(C)C)[C@H](C(=O)O)N(C(=O)C(C)Oc2ccccc2)[C@@H]1c1ccccc1 (single isomer, unassigned) [II-67] and report it. 1 to 10 µM

Find the measured EC50 of COc1ccc(C(C)(C)C)cc1CN[C@H]1[C@H](C(C)(C)C)[C@@H](C(=O)O)N(C(=O)CC2CCOCC2)[C@H]1c1ccccc1 [II-162] and report it. 1 to 10 µM

Find the measured EC50 of COc1ccc(C(C)(C)C)cc1CN[C@H]1[C@H](C(C)(C)C)[C@@H](C(=O)O)N(C(=O)C2CCCCC2)[C@H]1c1ccccc1O [Example I-310] and report it. 1 to 10 µM

###

# Target system: F508delCFTR (Homo sapiens, UniProt P13569, DEL508-508)
# Construct: expressed in transfected cells; host or cells: CFBE41o- human lung-derived epithelial cells (CFBE4lo-F508delCFTR-HRP), doxycycline-inducible
# Procedure summary: Cell Surface Expression-Horse Radish Peroxidase (CSE-HRP) Assay;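 as to Maximum % activity (without co-corrector): percent of the 2 µM on-plate positive control corrector response above DMSO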
# Format: cell-based
# Measurement setup: CSE-HRP; without co-corrector; maximum at any tested concentration, normalized to on-plate positive control; read-out: Maximum % activity (without co-corrector)
Readout type: Emax

1) COc1ccc(C(C)(C)C)cc1CN[C@H]1[C@H](C(C)(C)C)[C@@H](C(=O)O)N(C(=O)C(C)Oc2cccc(F)c2)[C@H]1c1ccccc1 (stereo partly drawn) | 100 to 200%
2) CC(C)c1ccccc1[C@H]1[C@@H](NCc2cc(C(C)(C)C)ccc2O)[C@H](C(C)(C)C)[C@@H](C(=O)O)N1C(=O)[C@@H]1CCCO1 | < 100%

Consider now this further compound.
Find the measured Emax of COc1ccc(C(C)(C)C)cc1CN[C@H]1[C@H](C(C)(C)C)[C@@H](C(=O)O)N(C(=O)C(C)Oc2ccccc2Cl)[C@H]1c1ccccc1 (stereo partly drawn) and report it. 100 to 200%

###

# Target system: F508delCFTR (Homo sapiens, UniProt P13569, DEL508-508)
# Construct: expressed in transfected cells; host or cells: CFBE41o- human lung-derived epithelial cells (CFBE4lo-F508delCFTR-HRP), doxycycline-inducible
# Procedure summary: Cell Surface Expression-Horse Radish Peroxidase (CSE-HRP) Assay;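 as to Maximum % activity (without co-corrector): percent of the 2 µM on-plate positive control corrector response above DMSO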
# Type: cell-based
# Measurement setup: test compound without co-corrector; maximum at any tested concentration, normalized to on-plate positive control; read-out: Maximum % activity (without co-corrector)
Listed here: items and their measured Emax.

In the examples that follow, each entry is paired with its recorded Emax.
1) CC(C)(C)[C@@H]1[C@@H](Nc2cc(C#N)ccn2)[C@@H](c2ccccc2)N(C(=O)C2CCCCC2)[C@H]1C(=O)O (racemic) [III-42] | < 100%
2) COc1ccc(C(C)(C)C)cc1CN[C@H]1[C@H](C(C)(C)C)[C@@H](C(=O)O)N(C(=O)C2CCC(C(F)(F)F)CC2)[C@H]1c1ccccc1 (some centres unmarked) [II-374] | 100 to 200%
3) COc1ncc(C2=CCOC2)cc1CN[C@H]1[C@H](C(C)(C)C)[C@@H](C(=O)O)N(C(=O)C2CCCCC2)[C@H]1c1ccccc1 [II-350] | 100 to 200%
4) COc1cc(Cl)cnc1N[C@@H]1[C@@H](C(C)(C)OC)[C@H](C(=O)O)N(C(=O)C2CCCCC2)[C@@H]1c1ccccc1 (racemic) [III-111] | < 100%
5) COCCOc1ncc(C(F)(F)F)cc1CN[C@@H]1[C@@H](C(C)(C)C)[C@H](C(=O)O)N(C(=O)C2CCCCC2)[C@@H]1c1ccccc1 (racemic) [III-80] | < 100%

Find the measured Emax of COc1ccc(C(C)(C)C)cc1CN[C@H]1[C@H](C(C)(C)C)[C@@H](C(=O)O)N(C(=O)O[C@H]2C[C@@H](C)CC[C@@H]2C(C)C)[C@H]1c1ccccc1 [II-386] and report it. > 200%

Find the measured Emax of COc1ccc(C2(C)CCC2)cc1CN[C@H]1[C@H](C(C)(C)C)[C@@H](C(=O)O)N(C(=O)[C@@H]2CCCO2)[C@H]1c1ccccc1C [II-578] and report it. > 200%

Find the measured Emax of COCCOc1ccc(C(F)(F)F)cc1CN[C@@H]1[C@@H](C(C)(C)C)[C@H](C(=O)O)N(C(=O)C2CCCCC2)[C@@H]1c1ccccc1 (racemic) [III-64] and report it. < 100%

Find the measured Emax of CC(C)(C)[C@@H]1[C@@H](NCc2cc(C(F)(F)F)cnc2OCCO)[C@@H](c2ccccc2)N(C(=O)C2CCCCC2)[C@H]1C(=O)O (racemic) [III-87] and report it. < 100%

Find the measured Emax of COc1nc2ccccc2cc1CN[C@H]1[C@H](C(C)(C)C)[C@@H](C(=O)O)N(C(=O)C2CCOCC2)[C@H]1c1ccccc1C(C)C [II-598] and report it. > 200%

Find the measured Emax of COc1ccc(C2(C)CCC2)cc1CN[C@H]1[C@H](C(C)(C)C)[C@@H](C(=O)O)N(C(=O)[C@@H]2CCCCO2)[C@H]1c1ccccc1F [II-546] and report it. > 200%

Find the measured Emax of COc1ncc(C2CCC2)cc1CN[C@H]1[C@H](C(C)(C)C)[C@@H](C(=O)O)N(C(=O)OC(C)C)[C@H]1c1cccnc1N(C)C [III-224] and report it. > 200%

Find the measured Emax of COc1ccc2cc(C)nc(N[C@H]3[C@H](C(C)(C)C)[C@@H](C(=O)O)N(C(=O)C4CCCCC4)[C@H]3c3ccccc3)c2c1 [III-154] and report it. < 100%

Find the measured Emax of Cc1cc(C(F)(F)F)cc(N[C@@H]2[C@@H](C(C)(C)C)[C@H](C(=O)NS(C)(=O)=O)N(C(=O)C3CCCCC3)[C@@H]2c2ccccc2)n1 (racemic) [III-56] and report it. < 100%

Find the measured Emax of COc1nc(C(C)(C)C)ccc1CN[C@H]1[C@H](C(C)(C)C)[C@@H](C(=O)O)N(C(=O)[C@H](OC)c2ccccc2)[C@H]1c1ccccc1 [II-433] and report it. 100 to 200%

Find the measured Emax of CC(C)(C)[C@@H]1[C@@H](NCc2cccc(Cl)c2O)[C@@H](c2ccccc2)N(C(=O)C2CCCCC2)[C@H]1C(=O)O (racemic) [III-9] and report it. < 100%

Find the measured Emax of COc1ccc2c(c1)[C@@](C)(C(=O)N1[C@H](C(=O)O)[C@@H](C(C)(C)C)[C@H](NCc3cc(C(C)(C)C)ccc3OC)[C@@H]1c1cccnc1OC)CC2 [II-569] and report it. < 100%

Find the measured Emax of COc1ncc(C2CCC2)cc1CN[C@H]1[C@H](C(C)(C)C)[C@@H](C(=O)O)N(C(=O)[C@@H]2CCCCO2)[C@H]1c1ccccc1C [II-585] and report it. > 200%

Find the measured Emax of COc1nc(C(C)(C)C)ccc1CN[C@H]1[C@H](C(C)(C)C)[C@@H](C(=O)O)N(C(=O)C2CCCCC2)[C@H]1c1ccccc1F [II-525] and report it. 100 to 200%

Find the measured Emax of COc1ccc(C(C)(C)C)cc1CN[C@H]1[C@H](C(C)(C)C)[C@@H](C(=O)O)N(C(=O)c2ccc(Oc3ccccn3)cc2)[C@H]1c1cccnc1N(C)C [II-466] and report it. > 200%

Find the measured Emax of COc1ncc(C(F)(F)F)cc1N[C@H]1[C@H](C(C)(C)C)[C@@H](C(=O)O)N(C(=O)[C@H]2CCCC[C@@H]2C(F)(F)F)[C@H]1c1cccnc1N(C)C [III-212] and report it. < 100%

Find the measured Emax of Cc1cc(C(F)(F)F)cc(N[C@@H]2[C@@H](C(C)(C)C)[C@H](C(=O)NS(=O)(=O)N(C)C)N(C(=O)C3CCCCC3)[C@@H]2c2ccccc2)n1 (racemic) [III-54] and report it. < 100%

Find the measured Emax of COc1cccc(CN[C@@H]2[C@@H](C(C)(C)C)[C@H](C(=O)O)N(C(=O)C3CCCCC3)[C@@H]2c2ccccc2)c1OC (racemic) [III-13] and report it. < 100%
